target: UniProtKB P52333; experiment: JAK3 Tyrosine Kinase Assay; type: biochemical; conditions: ATP 8 μM; JAK3 2.5 nM; 60 min room temperature
Sequence (P52333 whole entry): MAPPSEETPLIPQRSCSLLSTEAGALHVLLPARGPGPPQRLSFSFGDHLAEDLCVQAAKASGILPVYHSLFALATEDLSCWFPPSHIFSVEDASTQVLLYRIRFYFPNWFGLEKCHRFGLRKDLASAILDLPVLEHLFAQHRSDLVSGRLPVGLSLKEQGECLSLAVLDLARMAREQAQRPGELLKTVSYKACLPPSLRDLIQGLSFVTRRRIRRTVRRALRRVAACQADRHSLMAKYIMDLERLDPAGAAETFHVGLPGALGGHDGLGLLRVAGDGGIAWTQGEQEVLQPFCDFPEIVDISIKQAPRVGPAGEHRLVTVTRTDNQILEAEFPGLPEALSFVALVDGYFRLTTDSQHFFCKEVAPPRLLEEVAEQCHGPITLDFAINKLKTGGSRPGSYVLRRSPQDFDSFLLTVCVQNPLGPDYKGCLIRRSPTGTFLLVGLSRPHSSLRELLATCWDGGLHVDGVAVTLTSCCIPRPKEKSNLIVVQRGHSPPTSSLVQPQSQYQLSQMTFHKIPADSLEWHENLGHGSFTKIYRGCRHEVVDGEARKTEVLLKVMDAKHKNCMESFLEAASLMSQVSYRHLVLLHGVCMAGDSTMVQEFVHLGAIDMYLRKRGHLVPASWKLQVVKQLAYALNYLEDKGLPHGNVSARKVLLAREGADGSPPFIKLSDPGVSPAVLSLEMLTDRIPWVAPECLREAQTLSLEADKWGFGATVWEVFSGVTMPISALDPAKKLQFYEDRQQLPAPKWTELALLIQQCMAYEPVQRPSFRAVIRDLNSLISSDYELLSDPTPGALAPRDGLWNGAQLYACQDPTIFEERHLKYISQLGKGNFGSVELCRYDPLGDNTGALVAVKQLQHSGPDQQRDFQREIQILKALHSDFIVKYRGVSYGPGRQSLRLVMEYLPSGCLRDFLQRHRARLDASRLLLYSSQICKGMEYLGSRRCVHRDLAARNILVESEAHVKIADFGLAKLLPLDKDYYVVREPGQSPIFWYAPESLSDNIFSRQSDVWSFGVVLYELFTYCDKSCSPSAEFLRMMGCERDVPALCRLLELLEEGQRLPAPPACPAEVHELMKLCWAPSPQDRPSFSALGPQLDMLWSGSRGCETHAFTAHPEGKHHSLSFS
measure_name: IC50 (µM)

Example cases with answers are listed next.
Cc1cnc(C(=O)N2CCN(c3nc(Nc4cc(C)[nH]n4)c4cccn4n3)CC2)cn1 ... 0.12
Cc1ccc(C2(C(=O)N3CCN(c4nc(Nc5cc(C)[nH]n5)c5cccn5n4)CC3)CC2)cc1 ... 0.2
Cc1cc(Nc2nc(N3CCN(C(=O)Cc4c(Cl)cccc4Cl)CC3)nn3cccc23)n[nH]1 ... 0.03
Cc1cc(Nc2nc(N3CCN(C(=O)[C@@](C)(O)c4ccccc4)CC3)nn3cccc23)n[nH]1 ... 9.48
Cc1cc(Nc2nc(N3CCN(C(=O)C(C)(C)C)CC3)nn3cccc23)n[nH]1 ... 0.21

I = COc1cc(F)c(CC(=O)N2CCN(c3nc(Nc4cc(C)[nH]n4)c4cccn4n3)CC2)c(F)c1
II = Cc1cc(Nc2nc(N3CCN(C(=O)Cc4ccc(C(F)(F)F)cc4C(F)(F)F)CC3)nn3cccc23)n[nH]1
Exercise: Given the two records I and II , choose the one whose IC50 value is lower. // return label of chosen record
Key: II
(II: 0.00841 µM, I: 0.07 µM)
